Recorded GI50, one value per entry.
- Experiment Summary: Cytotoxicity against human BxPC3 cells after 48 hrs by SRB assay
- Format: functional
- Run Parameters: BXPC-3, 48 h

Examples from the recorded data:
INSERT INTO results (molecule, quantity_kind, val) VALUES
  ('C=C(C)[C@@H]1CC[C@]2(COC(C)=O)CC[C@]3(C)[C@H](CC[C@@H]4[C@@]5(C)CC[C@H](OC(C)=O)C(C)(C)[C@@H]5CC[C@]43C)[C@@H]12 [BETULIN DIACETATE]', 'GI50', '> 10 µg/mL'),
  ('CC1(C)CC[C@]23CC[C@]4(C)[C@H](CC[C@@H]5[C@@]6(C)CCC(=O)C(C)(C)[C@@H]6CC[C@]54C)[C@H]2[C@H]1OC3', 'GI50', '> 10 µg/mL');

// query What GI50 value was documented for this molecule, CC1(C)CC[C@]23CC[C@]4(C)[C@H](CC[C@@H]5[C@@]6(C)C=C(NC7=C[C@]8(C)[C@H]9CC[C@@H]%10[C@H]%11[C@H]%12OC[C@@]%11(CCC%12(C)C)CC[C@@]%10(C)[C@]9(C)CC[C@H]8C(C)(C)C7=O)C(=O)C(C)(C)[C@@H]6CC[C@]54C)[C@H]2[C@H]1OC3 ?
// result > 10 µg/mL
